Experiment: KARI assay of purified S. exigua KARI and variants with NADH (Examples 6-9)
Assay type: biochemical
Settings: specific activity ratio
readoutName: Ratio NADH/NADPH (U/mg)
Give bare numbers.

// field: Ratio NADH/NADPH (U/mg); key: Se1_KARI^MH9-his6: S. exigua KARI variant V99L (protein, UniProt D0WGK0 1-342, looked up, variant V99L, His6 tag, S. exigua KARI variant V99L) Ketol-acid reductoisomerase …: MSVKTKEKEMAVTILYEQDVDPKVIQGLKVGIIGYGSQGHAHALNLMDSGVDVRVGLREGSSSWKTAEEAGLKVTDMDTAAEEADVIMVLVPDEIQPKLYQEHIAAHLKAGNTLAFAHGFNIHYGYIVPPEDVNVIMCAPKGPGHIVRRQFTEGSGVPDLACVQQDATGNAWDIVLSYCWGVGGARSGIIKATFAEETEEDLFGEQAVLCGGLVELVKAGFETLTEAGYPPELAYFECYHEMKMIVDLMYESGIHFMNYSISNTAEYGEYYAGPKVINEQSREAMKEILKRIQDGSFAQEFVDDCNNGHKRLLEQREAINTHPIETTGAQIRSMFSWIKKED ; value = 0.64
